tested_system: beta-catenin/TCF4 engagement (Homo sapiens)
Construct: expressed in transfected cells; host or cells: HEK293
Sequence (P35222 1-781): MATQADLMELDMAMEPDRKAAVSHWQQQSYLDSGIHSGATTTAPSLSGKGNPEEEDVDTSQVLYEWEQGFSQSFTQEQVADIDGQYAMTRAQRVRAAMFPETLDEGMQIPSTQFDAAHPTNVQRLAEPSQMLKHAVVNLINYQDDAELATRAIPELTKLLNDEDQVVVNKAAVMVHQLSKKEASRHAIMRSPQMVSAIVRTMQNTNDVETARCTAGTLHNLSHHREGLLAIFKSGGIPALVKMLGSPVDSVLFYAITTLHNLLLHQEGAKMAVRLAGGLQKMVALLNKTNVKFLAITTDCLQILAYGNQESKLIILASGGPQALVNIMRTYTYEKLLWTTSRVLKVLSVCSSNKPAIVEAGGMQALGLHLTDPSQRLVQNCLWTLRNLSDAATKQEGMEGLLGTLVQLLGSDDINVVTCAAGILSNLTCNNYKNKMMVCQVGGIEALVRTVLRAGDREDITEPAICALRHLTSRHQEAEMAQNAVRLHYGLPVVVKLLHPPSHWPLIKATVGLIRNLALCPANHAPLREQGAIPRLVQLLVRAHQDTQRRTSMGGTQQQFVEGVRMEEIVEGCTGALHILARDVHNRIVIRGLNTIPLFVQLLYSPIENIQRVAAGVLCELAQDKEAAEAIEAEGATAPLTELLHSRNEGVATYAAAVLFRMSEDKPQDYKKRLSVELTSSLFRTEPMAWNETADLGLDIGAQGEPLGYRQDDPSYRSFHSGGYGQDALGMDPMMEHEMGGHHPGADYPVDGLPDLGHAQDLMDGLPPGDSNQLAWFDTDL
method_summary: Nano-BRET target engagement assay (B-cat-Halo & TCF4-Luc in HEK293 cells)
Format: cell-based
conditions_used: read-out: NanoBRET Abs IC50
readout_type: pIC50
A value of pIC50 is the negative decimal logarithm of a concentration given in moles per litre.

CC(=O)N1CCC[C@]12CC=CCCCC1(CCCC=CCCCOC(=O)N3CC[C@@](C(=O)N[C@@H](Cc4ccsc4)C(=O)N[C@@H](Cc4csc5ccccc45)C(=O)N[C@@H](CCC(N)=O)C(N)=O)(C3)NC(=O)[C@H](CC(C)C)NC(=O)[C@H](Cc3ccccc3)NC(=O)[C@H](C)NC(=O)[C@H](C)NC(=O)[C@H](CC(=O)O)NC(=O)[C@H](CC(=O)O)NC1=O)NC(=O)[C@H](CC(C)(C)C)NC(=O)[C@H](CC(=O)O)NC2=O (stereo partly drawn) [I-801] : 5.24

Which measured pIC50 belongs to CC(=O)N1CCC[C@]12CC=CCCCC1(CCCC=CCCCOC(=O)N3CC[C@@](C(=O)N[C@@H](Cc4ccccc4Cl)C(=O)N[C@@H](Cc4csc5ccccc45)C(=O)N[C@H](C(N)=O)C(C)C)(C3)NC(=O)[C@H](CC(N)=O)NC(=O)[C@H](Cc3ccccc3)NC(=O)[C@H](C)NC(=O)[C@H](C)NC(=O)[C@H](Cc3cccc(C(=O)O)c3)NC(=O)[C@H](CC(=O)O)NC1=O)NC(=O)[C@H](CC(C)(C)C)NC(=O)[C@H](CC(=O)O)NC2=O (stereo partly drawn) [I-2032] , tested on beta-catenin/TCF4 engagement (Homo sapiens)?
4.68

Subsequent entry: CC(=O)N1CCC[C@]12CC=CCCCC1(CCCC=CCCCOC(=O)N3CC[C@@](C(=O)N[C@@H](Cc4ccccc4Cl)C(=O)N[C@@H](Cc4csc5ccccc45)C(=O)N[C@@H](CCC(N)=O)C(N)=O)(C3)NC(=O)[C@H]([C@@H](C)O)NC(=O)[C@H](Cc3ccccc3)NC(=O)[C@H](C)NC(=O)[C@H](C)NC(=O)[C@H](CC(=O)O)NC(=O)[C@H](CC(=O)O)NC1=O)NC(=O)[C@H](CC(C)(C)C)NC(=O)[C@H](CC(=O)O)NC2=O (stereo partly drawn) [I-1013]
4.91
